The compounds listed here are annotated with their TGI.
- Tested on: A498 renal
- Procedure Summary: NCI tumour cell line growth inhibition, 48 h
Measured Metric: TGI (µM)

Compound	Sign	Observed Value
Cc1ccc(NNc2cc(=O)[nH]c(=O)[nH]2)cc1Cl	>	100
O=[N+]([O-])c1cccc2nc3ccccc3c(NCCNCCO)c12	=	0.0264
CCc1nc2ccc(Cc3ccc(C(=O)NO)cc3)cc2c(=O)n1CCc1ccccc1	=	1.93
COC(=O)c1ccc(NCC2=CC(=O)c3ccccc3C2=O)cc1	=	54.2
Cc1c(Cl)cccc1NC(=O)c1sc2nc3c(cc2c1N)CCCCCC3	=	9.16
CC1(C)OC2CN(C(=O)OCc3ccccc3)C(CO)C2O1 (stereo not given)	>	100
N#CSCC1CC(O)(c2ccccc2)C(c2ccccc2)C(c2ccc(F)cc2)O1 (stereo not given)	=	45.9
COC1=C(C(=O)OC(C)(C)C)[C@]2(C)C(C(=O)OC(C)(C)C)C(OC)=C(C(=O)OC(C)(C)C)[C@]2(C)C1C(=O)OC(C)(C)C (stereo not given in full)	>	100
CC(C)(C)C(=O)C(c1ccc(-c2cscn2)cc1)c1ccc(-c2cscn2)cc1	=	65.8
CCOC(=O)NNC1(SC)NC(=O)c2c(cc(Cl)oc2=O)O1 (stereo not given)	=	29.2
